Where do these numbers come from? They come from patent US20240050428A1.

# System: MOLM-13 cells
# PROTOCOL: Cell viability assay (CellTiter-Glo) in MOLM-13 cells, alone or with gilteritinib
# Format: cell-based
# STUDY_CONDITIONS: Homo sapiens, MOLM-13, 72 h, MOLM-13 cells, compound alone (without gilteritinib), three days, CellTiter-Glo; read-out: MOLM-13 IC50
pIC50: −log10 of the molar value.
QUANTITY_KIND: pIC50

INSERT INTO measurements (compound, assay_value) VALUES
  ('Cc1nn(CCCCCCNc2ccc3c(c2)C(=O)N(C2CCC(=O)NC2=O)C3=O)c(C)c1-c1nc2ccccc2nc1C(F)(F)F (centres unmarked)', '< 6.00'),
  ('O=C(CC12CC(C(=O)N3CCC(n4cc(-c5cnc6ccccc6n5)cn4)CC3)(C1)C2)NCc1ccc2c(c1)CN(C1CCC(=O)NC1=O)C2=O (centres unmarked)', '< 6.00'),
  ('O=C1CCC(N2C(=O)c3ccc(NCCCCCCn4ncc(-c5cnc6ccccc6n5)c4C4CC4)cc3C2=O)C(=O)N1 (centres unmarked)', '< 6.00'),
  ('Cc1cccc2ncc(-c3cnn(CCCCCCNc4ccc5c(c4)C(=O)N(C4CCC(=O)NC4=O)C5=O)c3)nc12 (centres unmarked)', '6.00 to 7.00'),
  ('O=C1CCC(N2C(=O)c3ccc(NCCC[C@H]4C[C@H](n5cc(-c6cnc7ccc(OC8CCNCC8)cc7n6)cn5)C4)cc3C2=O)C(=O)N1 (some centres unmarked)', '6.00 to 7.00'),
  ('O=C1CCC(N2C(=O)c3ccc(NCC4CC(n5cc(-c6cnc7cccc(N8CCOCC8)c7n6)cn5)C4)cc3C2=O)C(=O)N1 (centres unmarked)', '< 6.00'),
  ('Cc1nc(-c2cn([C@H]3C[C@H](CNc4ccc5c(c4)C(=O)N(C4CCC(=O)NC4=O)C5=O)C3)nc2C2CC2)ccc1F (some centres unmarked)', '7.00 to 8.00'),
  ('Cc1cccc(-c2cn([C@H]3C[C@H](CNc4ccc5c(c4)C(=O)N(C4CCC(=O)NC4=O)C5=O)C3)nc2C(F)(F)F)n1 (some centres unmarked)', '< 6.00'),
  ('O=C1CCC(N2C(=O)c3ccc(NC[C@H]4C[C@H](n5cc(-c6ccccc6Cl)c(C6CC6)n5)C4)cc3C2=O)C(=O)N1 (some centres unmarked)', '7.00 to 8.00'),
  ('CN1C[C@H]2C[C@@H]1CN2c1ccc2ncc(-c3cnn(C4CC(CCCNc5ccc6c(c5)C(=O)N(C5CCC(=O)NC5=O)C6=O)C4)c3)nc2c1 (some centres unmarked)', '< 6.00'),
  ('O=C1CCC(N2C(=O)c3ccc(NCC4CC5(C4)CC(n4cc(-c6cnc7ccccc7n6)cn4)C5)cc3C2=O)C(=O)N1 (centres unmarked)', '< 6.00'),
  ('O=C1CCC(N2Cc3c(Nc4ccnc(N5CCC(n6cc(-c7cnc8ccccc8n7)cn6)CC5)n4)cccc3C2=O)C(=O)N1 (centres unmarked)', '< 6.00'),
  ('O=C1CCC(N2Cc3c(NC4CCCC(Nc5cccc(N6CCC(n7cc(-c8cnc9ccccc9n8)cn7)CC6)c5)C4)cccc3C2=O)C(=O)N1 (centres unmarked)', '7.00 to 8.00'),
  ('O=C1CCC(N2Cc3cc(CCCCC4CC(n5cc(-c6cnc7ccccc7n6)cn5)C4)ccc3C2=O)C(=O)N1 (centres unmarked)', '< 6.00');
